All figures here come from ChEMBL document CHEMBL1124629.

Test: Displacement of ivermectin from avermectin receptor of Caenorhabditis elegans
Please provide measured pKi for the entries that follow.
Answers are plain numbers, as −log10 of the molar value.

Report pKi for every entry below.
1. CC[C@H](C)[C@H]1O[C@]2(CC[C@@H]1C)C[C@@H]1C[C@@H](C/C=C(\C)[C@@H](OC)[C@@H](C)/C=C/C=C3\CO[C@@H]4[C@H](O)C(C)=C[C@@H](C(=O)O1)[C@]34O)O2
2. CC[C@H](C)[C@H]1O[C@]2(CC[C@@H]1C)C[C@@H]1C[C@@H](C/C=C(\C)C(=O)[C@@H](C)/C=C/C=C3\CO[C@@H]4[C@H](O)C(C)=C[C@@H](C(=O)O1)[C@]34O)O2
3. CC[C@H](C)[C@H]1O[C@]2(CC[C@@H]1C)C[C@@H]1C[C@@H](C/C=C(\C)[C@H](I)[C@@H](C)/C=C/C=C3\CO[C@@H]4[C@H](O)C(C)=C[C@@H](C(=O)O1)[C@]34O)O2
4. CC[C@H](C)[C@H]1O[C@]2(CC[C@@H]1C)C[C@@H]1C[C@@H](C/C=C(C)/C=C(C)\C=C\C=C3/CO[C@@H]4[C@H](O)C(C)=C[C@@H](C(=O)O1)[C@]34O)O2
5. CC[C@H](C)[C@H]1O[C@]2(CC[C@@H]1C)C[C@@H]1C[C@@H](C/C=C(\C)[C@@H](O)[C@@H](C)/C=C/C=C3\CO[C@@H]4[C@H](O)C(C)=C[C@@H](C(=O)O1)[C@]34O)O2
6. CC[C@H](C)[C@H]1O[C@]2(CC[C@@H]1C)C[C@@H]1C[C@@H](C/C=C(\C)[C@@H](F)[C@@H](C)/C=C/C=C3\CO[C@@H]4[C@H](O)C(C)=C[C@@H](C(=O)O1)[C@]34O)O2

1. 9.22
2. 9.22
3. 8.62
4. 9.10
5. 8.19
6. 9.70

====

Please provide measured Ki for the entries that follow.
Experiment: Binding radioligand
Parameters: species or system Caenorhabditis elegans
Give bare numbers, in nM.

Report Ki for every entry below.
1. CC[C@H](C)[C@H]1O[C@]2(C=C[C@@H]1C)C[C@@H]1C[C@@H](C/C=C(\C)[C@@H](O[C@H]3C[C@H](OC)[C@@H](O[C@H]4C[C@H](OC)[C@@H](O)[C@H](C)O4)[C@H](C)O3)[C@@H](C)/C=C/C=C3\CO[C@@H]4[C@H](O)C(C)=C[C@@H](C(=O)O1)[C@]34O)O2 [ABAMECTIN COMPONENT B1A]
2. CC[C@H](C)[C@H]1O[C@]2(CC[C@@H]1C)C[C@@H]1C[C@@H](C/C=C(C)/C(=N\OC)[C@@H](C)/C=C/C=C3\CO[C@@H]4[C@H](O)C(C)=C[C@@H](C(=O)O1)[C@]34O)O2

1. 0.1
2. 0.3

====

Assay: Displacement of ivermectin from avermectin receptor of Caenorhabditis elegans
measured.parameter: pKi
Answers are plain numbers, as −log10 of the molar value.

CC[C@H](C)[C@H]1O[C@]2(CC[C@@H]1C)C[C@@H]1C[C@@H](C/C=C(\C)[C@H](Cl)[C@@H](C)/C=C/C=C3\CO[C@@H]4[C@H](O)C(C)=C[C@@H](C(=O)O1)[C@]34O)O2    9.00

State its pKi: CC[C@H](C)[C@H]1O[C@]2(CC[C@@H]1C)C[C@@H]1C[C@@H](C/C=C(\C)[C@H](O)[C@@H](C)/C=C/C=C3\CO[C@@H]4[C@H](O)C(C)=C[C@@H](C(=O)O1)[C@]34O)O2 8.70
